- System: TFEB
- Assay overview: TFEB nuclear translocation assay, HeLa wt cells
- Assay type: cell-based
- Condition details: Homo sapiens, HeLa, 2 h, 2 hrs compound treatment, Table 1 does not say HeLa wt or TRPML1 KO
Readout name: AC50

Q: Form field: AC50 recorded for C[C@@H]1CN(CC2CCN(c3c(F)cccc3NS(=O)(=O)c3ccc(S(=O)(=O)N4CCC4)cc3)CC2)C[C@H](C)O1 with TFEB (enter value)
Ans: ≤ 2 µM

Q: Form field: AC50 recorded for CN(C)S(=O)(=O)c1ccc(S(=O)(=O)Nc2cc(Cl)nnc2N2CCC(c3ccc(Cl)cc3F)CC2)cc1 with TFEB (enter value)
Ans: ≥ 10 µM

Q: Form field: AC50 recorded for CN1CC2(CCN(c3ccccc3NS(=O)(=O)c3ccc(S(=O)(=O)N(C)C)cc3)C(=O)C2)c2ccc(F)cc21 (centres unmarked) with TFEB (enter value)
Ans: ≤ 2 µM

Q: Form field: AC50 recorded for COCC1(C)CCN(c2ccccc2NS(=O)(=O)c2ccc(OCC3CC3)cc2)CC1 with TFEB (enter value)
Ans: 2.01 to 8 µM

Q: Form field: AC50 recorded for CC1(C)CC2(CCN(c3ccccc3NS(=O)(=O)C3=Cc4ccccc4OC3)CC2)CO1 with TFEB (enter value)
Ans: ≤ 2 µM

Q: Form field: AC50 recorded for COc1ccc(S(=O)(=O)Nc2cccnc2N2CCN(c3ncc(Cl)cc3F)CC2)cc1 with TFEB (enter value)
Ans: ≥ 10 µM

Q: Form field: AC50 recorded for CN(C)S(=O)(=O)c1ccc(S(=O)(=O)Nc2cc(Cl)ccc2N2CCN(C(=O)C(C)(C)C)CC2)cc1 with TFEB (enter value)
Ans: 2.01 to 8 µM

Q: Form field: AC50 recorded for Cn1cc(S(=O)(=O)Nc2ccccc2N2CCN(c3ccc(Cl)cc3F)CC2)cn1 with TFEB (enter value)
Ans: ≥ 10 µM

Q: Form field: AC50 recorded for CN(C)S(=N)(=O)c1ccc(S(=O)(=O)Nc2cccc(F)c2N2CCC(CN3CC4CCC(C3)O4)CC2)cc1 (centres unmarked) with TFEB (enter value)
Ans: ≤ 2 µM

Q: Form field: AC50 recorded for CC(c1cccc(F)c1N1CCCCC1)S(=O)(=O)c1ccc(S(=O)(=O)C(F)F)cc1 (centres unmarked) with TFEB (enter value)
Ans: ≤ 2 µM

Q: Form field: AC50 recorded for CC1(C)CC2(CCN(c3ccccc3NS(=O)(=O)Cc3ccccc3)CC2)CO1 with TFEB (enter value)
Ans: ≤ 2 µM

Q: Form field: AC50 recorded for Cc1ccc(CS(=O)(=O)Nc2ccccc2N2CCC3(CC2)COC(C)(C)C3)cc1F with TFEB (enter value)
Ans: ≤ 2 µM

Q: Form field: AC50 recorded for CN(C)S(=O)(=O)c1ccc(S(=O)(=O)Nc2cccnc2N2CCC(c3ccc(Cl)cc3F)CC2)cc1 with TFEB (enter value)
Ans: ≤ 2 µM

Q: Form field: AC50 recorded for COCC(F)(F)C1CCN(c2c(F)cccc2NS(=O)(=O)c2ccc(S(=O)(=O)N(C)C)cc2)CC1 with TFEB (enter value)
Ans: ≤ 2 µM

Q: Form field: AC50 recorded for CN1CC2(CCN(c3ccccc3NS(=O)(=O)c3ccc(S(=O)(=O)N(C)C)cc3)CC2)c2ccncc21 with TFEB (enter value)
Ans: ≤ 2 µM

Q: Form field: AC50 recorded for CN(C)S(=O)(=O)c1ccc(S(=O)(=O)Nc2ccccc2N2CCC(C)(c3ccccc3Cl)CC2)cc1 with TFEB (enter value)
Ans: ≤ 2 µM

Q: Form field: AC50 recorded for CN(C)S(=O)(=O)c1ccc(S(=O)(=O)Nc2ccccc2N2C3CC2CN(c2ccc(Cl)cc2F)C3)cc1 with TFEB (enter value)
Ans: 2.01 to 8 µM

Q: Form field: AC50 recorded for CN1CC2(CCN(c3ccccc3NS(=O)(=O)c3ccc(S(=O)(=O)N(C)C)cc3)CC2)c2ccc(F)cc21 with TFEB (enter value)
Ans: ≤ 2 µM

Q: Form field: AC50 recorded for COc1ccc(CN2C(=O)C(c3ccc(Cl)cc3F)Oc3ccccc32)cc1 (centres unmarked) with TFEB (enter value)
Ans: ≤ 2 µM

Q: Form field: AC50 recorded for CC(C)CN1CCN(c2ccccc2C(C)S(=O)(=O)c2ccc(S(=O)(=O)N(C)C)cc2)CC1 (centres unmarked) with TFEB (enter value)
Ans: ≤ 2 µM

Q: Form field: AC50 recorded for CC(C)(C)C(=O)N1CCN(c2ccccc2NS(=O)(=O)c2ccc(OC3CC3)cc2)CC1 with TFEB (enter value)
Ans: ≥ 10 µM

Q: Form field: AC50 recorded for CN(C)S(=O)(=O)c1ccc(S(=O)(=O)Nc2ccccc2N2CCN([C@@H]3C[C@@H]4CC[C@H]3C4)CC2)cc1 (racemic) with TFEB (enter value)
Ans: ≤ 2 µM

Q: Form field: AC50 recorded for CN(C)S(=O)(=O)c1ccc(S(=O)(=O)Nc2ccccc2N2CCC(COC(F)F)CC2)cc1 with TFEB (enter value)
Ans: ≤ 2 µM

Q: Form field: AC50 recorded for O=S(=O)(CCO)c1ccc(S(=O)(=O)Nc2ccccc2N2CCC(c3ccc(Cl)cc3F)CC2)cc1 with TFEB (enter value)
Ans: ≥ 10 µM

Q: Form field: AC50 recorded for Cc1nc(C2CCN(c3ccc(Cl)cc3F)CC2)cn1S(=O)(=O)c1ccc(S(=O)(=O)N(C)C)cc1 with TFEB (enter value)
Ans: 2.01 to 8 µM

Q: Form field: AC50 recorded for CC(c1cccc(F)c1N1CCC(C)(C(F)F)CC1)S(=O)(=O)c1ccc(S(=O)(=O)N(C)C)cc1 (single isomer, unassigned) with TFEB (enter value)
Ans: ≤ 2 µM

Q: Form field: AC50 recorded for CN(C)S(=O)(=O)c1ccc(S(=O)(=O)Nc2ccccc2N2CCC(O)(c3ccncc3F)CC2)cc1 with TFEB (enter value)
Ans: ≥ 10 µM

Q: Form field: AC50 recorded for CN(C)S(=O)(=O)c1ccc(S(=O)(=O)Nc2cccc(F)c2N2CCC3(CC2)COC(C)(C)C3)cc1 with TFEB (enter value)
Ans: ≤ 2 µM

Q: Form field: AC50 recorded for CN(C(=O)C1(C)CCN(c2ccccc2NS(=O)(=O)c2ccc(S(=O)(=O)N(C)C)cc2)CC1)C(C)(C)C with TFEB (enter value)
Ans: ≤ 2 µM

###

Would you kindly list AC50 for each of these molecules?
- Test system: TFEB
- Assay overview: TFEB nuclear translocation assay, HeLa wt cells
- Type: cell-based
- Condition details: Homo sapiens, HeLa, 2 h, 2 hrs compound treatment, Table 1 does not say HeLa wt or TRPML1 KO

Q: State the recorded AC50 for this entry: CN(C)S(=O)(=O)c1ccc(S(=O)(=O)Nc2ccccc2N2CCC(C(F)(F)F)CC2)cc1 [Compound A-550]
Ans: ≤ 2 µM

Q: State the recorded AC50 for this entry: C[C@H]1CN(c2ccccc2NS(=O)(=O)c2ccc(S(=O)(=O)N(C)C)cc2)CCN1C(=O)c1cscn1 [Compound A-416]
Ans: 2.01 to 8 µM

Q: State the recorded AC50 for this entry: CN(C)S(=O)(=O)c1ccc(S(=O)(=O)Nc2ccccc2N2CCC(C)(CO)CC2)cc1 [Compound A-436]
Ans: 2.01 to 8 µM

Q: State the recorded AC50 for this entry: COCC1(C)CCN(c2ccccc2NS(=O)(=O)c2ccc(C3(C(F)(F)F)N=N3)cc2)CC1 [Compound A-740]
Ans: 8.01 to 9.99 µM

Q: State the recorded AC50 for this entry: O=S(=O)(Nc1ccccc1N1CCC(c2ccc(Cl)cc2F)CC1)c1ccc(F)cc1F [Compound A-87]
Ans: ≥ 10 µM

Q: State the recorded AC50 for this entry: CN(C)S(=O)(=O)c1ccc(S(=O)(=O)Nc2ccccc2N2CCN(C(C)(C)C)CC2)cc1 [Compound A-337]
Ans: 8.01 to 9.99 µM

Q: State the recorded AC50 for this entry: CS(=O)(=O)c1ccc(S(=O)(=O)Nc2ccccc2N2CCC3(CC2)OCCc2ccccc23)cc1 [Compound A-402]
Ans: 2.01 to 8 µM

###

- Tested on: TFEB
- Assay overview: TFEB nuclear translocation assay, HeLa wt cells
- Assay type: cell-based
- Condition details: Homo sapiens, HeLa, 2 h, 2 hrs compound treatment, Table 1 does not say HeLa wt or TRPML1 KO
Readout name: AC50

Q: State the recorded AC50 for this entry: COCC1(C)CCN(c2ccccc2NS(=O)(=O)Cc2ccc(C)c(F)c2)CC1
Ans: 2.01 to 8 µM

Q: State the recorded AC50 for this entry: CN1CCC2(CCN(c3ccccc3NS(=O)(=O)c3ccc(S(=O)(=O)N(C)C)cc3)CC2)C1=O
Ans: ≥ 10 µM

Q: State the recorded AC50 for this entry: CP(C)(=O)c1ccc(S(=O)(=O)Nc2cc(Cl)ccc2N2CCOCC2)cc1
Ans: ≥ 10 µM

Q: State the recorded AC50 for this entry: COCC1(C)CCN(c2ccccc2NS(=O)(=O)c2ccc(C(C)C)cc2)CC1
Ans: ≤ 2 µM
